Test system: ACHN renal
Assay: NCI-60 one-dose screen, 48 h (100 = growth as untreated, 0 = no growth, -100 = all killed)
Settings: 10 µM unless noted
This is part of a sample that, as a whole, favours compounds with a hit. Of some 83,000 tested, about 20% had one in any assay.
ENDPOINT LABEL: growth (%)
Unit % implied. Number only.

Would you please look over these solved cases?
COC(=O)c1c(C(=O)OC)c2c3ccccc3c3ccccc3n2c1C(=O)C(F)(F)F = 93.7
COc1cc(/C=C/C(=O)c2ccc(S(=O)(=O)NCCNc3nc(N(C)C)nc(N4CCOCC4)n3)cc2)cc(OC)c1OC = -100

Entry Cc1nc2sccn2c1-c1nnc(SCC(C)C)o1 under ACHN renal had growth of 87.8

The reported ACHN renal growth of O=C(NC(=S)N1CCN(c2ncnc3c2cnn3-c2ccccc2)CC1)c1ccc(Br)cc1 is 69.2

Entry NS(=O)(=O)c1ccc(N2N=C(c3ccc(NC(=O)Nc4ccccc4)cc3)CC2c2ccc(Br)cc2)cc1 (centres undefined) , ACHN renal data, growth value: -100
